assay.target: human APJ receptor (Homo sapiens)
Construct: expressed in transfected cells; host or cells: HEK293
procedure.details: Intracellular cAMP accumulation assay (APJ hcAMP, HTRF)
Type: cell-based
setup.conditions: HEK293 cells stably expressing human APJ receptor; inhibition of forskolin-mediated cAMP production; Table 1; read-out: hAPJ cAMP EC50 Potency range
pEC50: −log10 of the molar value.
property.measured: pEC50

Example cases with answers are listed next.
{"compound": "CCCCc1nc(O)c(S(=O)(=O)c2ccc(-c3cccnc3C)cc2)c(O)c1N(C)c1ccc(C)cc1 [Example 097]", "assay.target": "human APJ receptor (Homo sapiens)", "result": "7.00 to 8.00"}
{"compound": "CCCCc1nc(O)c(S(=O)(=O)c2ccc(-c3cccnc3C)cc2)c(O)c1N(C)c1cccc(Cl)c1 [Example 102]", "assay.target": "human APJ receptor (Homo sapiens)", "result": "7.00 to 8.00"}
{"compound": "CCCCc1nc(O)c(S(=O)(=O)c2ccc(-c3ccccc3C(=O)NC)cc2)c(O)c1N(CC)c1cc(C)cc(C)c1 [Example 182]", "assay.target": "human APJ receptor (Homo sapiens)", "result": "8.00 to 11.00"}

Qu. Param item = CCCCc1nc(O)c(S(=O)(=O)c2ccc(-c3ccc(F)nc3C)cc2)c(O)c1N(C)c1cccc(C#N)c1 [Example 117] ; retrieve measured pEC50.
Ans. 8.00 to 11.00

###

assay.target: human APJ receptor (Homo sapiens, UniProt P35414)
Construct: expressed in transfected cells; host or cells: HEK293
Sequence (P35414 whole entry): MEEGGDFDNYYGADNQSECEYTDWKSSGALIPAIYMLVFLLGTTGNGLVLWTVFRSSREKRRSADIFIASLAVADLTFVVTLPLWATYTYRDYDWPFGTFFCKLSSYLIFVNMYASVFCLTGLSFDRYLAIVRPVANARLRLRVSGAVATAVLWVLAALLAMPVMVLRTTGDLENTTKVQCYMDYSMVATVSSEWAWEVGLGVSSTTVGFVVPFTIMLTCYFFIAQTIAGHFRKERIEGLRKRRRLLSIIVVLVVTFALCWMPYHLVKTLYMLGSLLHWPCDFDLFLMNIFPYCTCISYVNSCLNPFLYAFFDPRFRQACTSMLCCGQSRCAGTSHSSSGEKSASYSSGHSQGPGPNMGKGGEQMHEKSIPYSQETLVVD
procedure.details: Intracellular cAMP accumulation assay (APJ hcAMP, HTRF)
Type: cell-based
setup.conditions: HEK293 cells stably expressing human APJ receptor; inhibition of forskolin-mediated cAMP production; Table 2; read-out: hAPJ cAMP EC50 Potency range
Listed here: items and their measured EC50.

Guide cases for EC50, answers given:
{"compound": "CCN(c1ccccc1)c1c(-c2ccn(C)n2)nc(O)c(C(=O)N2CCC(c3ccc(F)cc3F)C2)c1O (stereo not shown) [Example 201]", "EC50": "0.01 to 10 nM"}
{"compound": "CC(C)N(c1ccccc1)c1c(-c2ccn(C)n2)nc(O)c(C(=O)N2CCC(c3ccc(F)cc3F)C2)c1O (stereo not shown) [Example 209]", "EC50": "0.01 to 10 nM"}
{"compound": "CCN(c1ccccc1)c1c(-c2ccn(C)n2)nc(O)c(C(=O)N2CCC(c3ccccc3F)C2)c1O (stereo not shown) [Example 205]", "EC50": "0.01 to 10 nM"}
{"compound": "CCN(c1ccccc1)c1c(-c2ccn(C)n2)nc(O)c(C(=O)N2CCC(c3ncc(Cl)cc3F)C2)c1O (stereo not shown) [Example 204]", "EC50": "0.01 to 10 nM"}
{"compound": "CCN(c1ccccc1)c1c(-c2ccn(C)n2)nc(O)c(C(=O)N2CCC(c3ccc(Cl)cn3)C2)c1O (stereo not shown) [Example 200]", "EC50": "0.01 to 10 nM"}
{"compound": "CCN(c1ccccc1)c1c(-c2ccn(C)n2)nc(O)c(C(=O)N2CCC(c3ccccc3F)C2)c1O (stereo not shown) [Example 202]", "EC50": "0.01 to 10 nM"}

Qu. Endpoint output: EC50 of CCN(c1ccccc1)c1c(-c2ccn(C)n2)nc(O)c(C(=O)N2CCC(c3ccc(F)cc3F)C2)c1O (stereo not shown) [Example 207] . Value?
Ans. 0.01 to 10 nM

###

assay.target: human APJ receptor (Homo sapiens, UniProt P35414)
Construct: expressed in transfected cells; host or cells: HEK293
procedure.details: Intracellular cAMP accumulation assay (APJ hcAMP, HTRF)
Format: cell-based
setup.conditions: HEK293 cells stably expressing human APJ receptor; inhibition of forskolin-mediated cAMP production; Table 1; read-out: hAPJ cAMP EC50 Potency range
pEC50: −log10 of the molar value.
property.measured: pEC50

Some compounds with known pEC50 results, for comparison:
{"compound": "CCCCc1nc(O)c(S(=O)(=O)c2ccc(-c3ccccc3C(=O)N(C)C)cc2)c(O)c1N(CC)c1cccc(C#N)c1", "pEC50": "8.00 to 11.00"}
{"compound": "CCCCc1nc(O)c(S(=O)(=O)c2ccc(-c3ccncc3C)cc2)c(O)c1N1CCCc2ccccc21", "pEC50": "8.00 to 11.00"}
{"compound": "CCCCc1nc(O)c(S(=O)(=O)c2ccc(-c3ccc(F)nc3C)cc2)c(O)c1N(C)c1cccc(C)c1", "pEC50": "7.00 to 8.00"}
{"compound": "CCCCc1nc(O)c(S(=O)(=O)c2ccc(-c3ccncc3C)cc2)c(O)c1N(C)c1ccccc1F", "pEC50": "8.00 to 11.00"}

Qu. Entry CCCCc1nc(O)c(S(=O)(=O)c2ccc(-c3ccncc3C)cc2)c(O)c1N(C)c1cccc(OC)c1 has what pEC50?
Ans. 7.00 to 8.00

Qu. Check CCCCc1nc(O)c(C(=O)N2CC[C@@H](c3ccccc3)C2)c(O)c1N(CCC)c1ccccc1 too.
Ans. 7.00 to 8.00

Qu. Note, next up: CCCCc1nc(O)c(S(=O)(=O)c2ccc(-c3ccnc(F)c3C)cc2)c(O)c1N(C)c1cccc(OC)c1
Ans. 8.00 to 11.00

Qu. Also CCCCc1nc(O)c(S(=O)(=O)c2ccc(-c3cccnc3C)cc2)c(O)c1N1CCCCc2ccccc21 , if possible.
Ans. 7.00 to 8.00

Qu. Also, CCCCc1nc(O)c(S(=O)(=O)c2ccc(-c3ccc(F)nc3C)cc2)c(O)c1N(C)c1ccccc1 please.
Ans. 8.00 to 11.00

Qu. Next compound: CNC(=O)c1cccc(-c2ccc(S(=O)(=O)c3c(O)nc(-c4ccn(C)n4)c(N(c4ccccc4)C(C)C)c3O)cc2)c1
Ans. 8.00 to 11.00

Qu. What about CCCCc1nc(O)c(S(=O)(=O)c2ccc(-c3ccncc3C)cc2)c(O)c1N(C)c1cccc(C)c1 ?
Ans. 8.00 to 11.00

Qu. Thanks! And CCCCc1nc(O)c(S(=O)(=O)c2ccc(-n3cc(Cl)ccc3=O)cc2)c(O)c1N(CC)c1ccccc1 ?
Ans. 8.00 to 11.00

Qu. Cool, now CCCCc1nc(O)c(S(=O)(=O)c2ccc(-c3cccnc3C)cc2)c(O)c1N(C)c1ccccc1C
Ans. 7.00 to 8.00

Qu. What would you report for CCCCc1nc(O)c(S(=O)(=O)c2ccc(-c3ccccc3C(N)=O)cc2)c(O)c1N(C)c1ccccc1F ?
Ans. 8.00 to 11.00

Qu. Now the same for CCCCc1nc(O)c(S(=O)(=O)c2ccc(-c3ccc(F)nc3C)cc2)c(O)c1N1c2ccccc2CCC1C (stereo not drawn)
Ans. 8.00 to 11.00

###

assay.target: human APJ receptor (Homo sapiens)
Construct: expressed in transfected cells; host or cells: HEK293
procedure.details: Intracellular cAMP accumulation assay (APJ hcAMP, HTRF)
Assay type: cell-based
setup.conditions: HEK293 cells stably expressing human APJ receptor; inhibition of forskolin-mediated cAMP production; Table 1; read-out: hAPJ cAMP EC50 Potency range
property.measured: EC50

Field: example entries. Status: answers known.
{"structure": "CCN(c1cccc(C#N)c1)c1c(-c2ccn(C)n2)nc(O)c(S(=O)(=O)c2ccc(-c3ccncc3C)cc2)c1O", "EC50": "0.01 to 10 nM"}
{"structure": "CCCCc1nc(O)c(S(=O)(=O)c2ccc(-c3ccccc3C(=O)NC)cc2)c(O)c1N1CCCCc2ccccc21", "EC50": "10 to 100 nM"}
{"structure": "CCN(c1ccccc1)c1c(-c2ccn(C)n2)nc(O)c(S(=O)(=O)c2ccc(-c3ccnc(F)c3C)cc2)c1O", "EC50": "0.01 to 10 nM"}
{"structure": "CCCCc1nc(O)c(S(=O)(=O)c2ccc(-c3ccc(F)nc3C)cc2)c(O)c1N(c1ccccc1)C(C)C", "EC50": "0.01 to 10 nM"}
{"structure": "CCCCc1nc(O)c(S(=O)(=O)c2ccc(-c3ccc(F)nc3C)cc2)c(O)c1N1CCCOc2ccccc21", "EC50": "10 to 100 nM"}
{"structure": "CCCCc1nc(O)c(S(=O)(=O)c2ccc(-c3ccncc3C)cc2)c(O)c1N(C)c1ccc(C)cc1", "EC50": "0.01 to 10 nM"}
{"structure": "CCCCc1nc(O)c(S(=O)(=O)c2ccc(-c3ccccc3C(=O)N(C)C)cc2)c(O)c1N1CCCOc2ccccc21", "EC50": "10 to 100 nM"}
{"structure": "CCCCc1nc(O)c(S(=O)(=O)c2ccc(-c3ccccc3C(N)=O)cc2)c(O)c1N(CC)c1cc(C)cc(C)c1", "EC50": "0.01 to 10 nM"}

Qu. Requested read-out: EC50. Entry: CCCCc1nc(O)c(S(=O)(=O)c2ccc(-c3ccnc(F)c3C)cc2)c(O)c1N(CC)c1cc(C)cc(C)c1
Ans. 0.01 to 10 nM

Qu. CCCCc1nc(O)c(S(=O)(=O)c2ccc(-c3ccccc3C(=O)N(C)C)cc2)c(O)c1N(C)c1ccccc1F ?
Ans. 0.01 to 10 nM

Qu. Repeat with CCCCc1nc(O)c(S(=O)(=O)c2ccc(-c3cccnc3C)cc2)c(O)c1N(CC)c1ccccc1
Ans. 0.01 to 10 nM

Qu. Thanks! And CCCCc1nc(O)c(S(=O)(=O)c2ccccc2)c(O)c1N(CC)c1ccccc1 ?
Ans. 10 to 100 nM

Qu. And for CCCCc1nc(O)c(S(=O)(=O)c2ccc(-c3ccccc3C(=O)NC3CC3)cc2)c(O)c1N(C)c1ccccc1C ?
Ans. 0.01 to 10 nM

Qu. Record: CCCCc1nc(O)c(S(=O)(=O)c2ccc(-c3ccccc3C(N)=O)cc2)c(O)c1N1CCCc2ccccc21
Ans. 0.01 to 10 nM

Qu. # repeat for CCCCc1nc(O)c(S(=O)(=O)c2ccc(-c3cccnc3C)cc2)c(O)c1N(CC)c1cc(C)cc(C)c1
Ans. 10 to 100 nM
